These measurements were taken from patent US20250270301A1.

target-entity: T1, full length recombinant human 2N4R tau (human, UniProt P10636 1-758)
T1 construct: bought from rPeptide; pHrodo Red maleimide-labelled where it stands in uptake assays; also called tau1-441; full length tau
T1 sequence (P10636 other isoform, or with tags, fused parts or gaps limits assumed): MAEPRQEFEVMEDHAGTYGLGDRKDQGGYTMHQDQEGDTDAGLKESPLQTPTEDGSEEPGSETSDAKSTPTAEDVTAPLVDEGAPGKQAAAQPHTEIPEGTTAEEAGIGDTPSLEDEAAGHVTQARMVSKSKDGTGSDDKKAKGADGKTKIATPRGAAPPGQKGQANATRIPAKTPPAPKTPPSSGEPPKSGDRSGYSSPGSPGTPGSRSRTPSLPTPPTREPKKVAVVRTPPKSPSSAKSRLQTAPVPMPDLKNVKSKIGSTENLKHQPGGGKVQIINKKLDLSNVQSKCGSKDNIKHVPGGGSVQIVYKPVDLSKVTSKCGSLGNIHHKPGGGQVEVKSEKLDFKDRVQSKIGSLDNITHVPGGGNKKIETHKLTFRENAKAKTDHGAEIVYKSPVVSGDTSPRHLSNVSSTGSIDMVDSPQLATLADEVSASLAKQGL
protocol-summary: SPR MCK, IgG on Protein A, tau in flow at 100 µL/min
Listed next: entries and their corresponding koff.
Please reply with the bare figure in s⁻¹ and do not write the unit itself.

#44_VH4VK4_H02/pVL (antibody, V domains shown, also called Clone VH4_H02; #44_VH4_H02) VH: QVQLQESGPGLVKPSETLSLTCTVSGIDLSSYAMAWVRQAPGKGLEWIGCIDRRGGTFYASWVKGRFTISKDTSKTTVDLQMTSLTAEDTATYFCARDRGDFDVWGQGTLVTVSS VL: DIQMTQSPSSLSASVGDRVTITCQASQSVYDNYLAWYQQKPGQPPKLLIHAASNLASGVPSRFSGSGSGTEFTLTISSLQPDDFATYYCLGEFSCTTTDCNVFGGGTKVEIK; 0.0037

Now for the binder whose koff we want.
Reported koff, binder #44_VH4VK4_H04/pVL (antibody, V domains shown, also called VH04/pVL; Clone VH4_H04) VH: QVQLQESGPGLVKPSETLSLTCTVSGIDLSSYAMAWVRQAPGKGLEWIGCIDRRGGTFYASWVKGRFTISKDTSKTTVDLQMTSLTAEDTATYFCARDAGSFHPWGQGTLVTVSS VL: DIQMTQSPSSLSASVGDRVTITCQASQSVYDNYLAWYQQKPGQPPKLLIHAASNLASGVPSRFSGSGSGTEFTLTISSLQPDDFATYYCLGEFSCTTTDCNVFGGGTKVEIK : ____
0.00185
